Test system: Trichophyton benhamiae
Assay: Antifungal activity against Trichophyton mentagrophytes C108 after 48 hrs
Type: functional, Arthroderma benhamiae
Here the recorded MIC is given for each entry.
Your answer is read as µg/mL, so omit the unit and give the number.

O=C1NC(=S)S/C1=C\c1ccc(C(F)(F)F)cc1; 1.95

(Q) Give the reported MIC for O=C1NC(=S)S/C1=C\c1ccc(F)cc1 (system: Trichophyton benhamiae).
(A) 1.95

(Q) Next compound: CN(C/C=C/C#CC(C)(C)C)Cc1cccc2ccccc12
(A) 0.006

(Q) What do we get for O=C1NC(=S)S/C1=C\c1ccccc1C(F)(F)F ?
(A) 1.95

----------
Tested on: Saccharomyces cerevisiae
Assay: Antifungal activity against Saccharomyces cerevisiae ATCC 9763 after 48 hrs
Assay type: functional
Details: ATCC 9763, 48 h
# key: entry, value: MIC
State just the number; it will be interpreted in µg/mL.

O=C1NC(=S)S/C1=C\c1ccc(C(F)(F)F)cc1; 15.6

(Q) // MIC lookup, key: O=C1NC(=S)S/C1=C\c1ccc(F)cc1
(A) 7.8

(Q) What about O=C1NC(=S)S/C1=C\c1ccc(Br)cc1 ?
(A) 250

----------
# MIC per entry
System: Aspergillus niger
Experiment: Antifungal activity against Aspergillus niger ATCC 9029 after 48 hrs
Type: functional
Conditions: ATCC 9029, 48 h

The examples below pair each entry with its known result.
O=C1NC(=S)S/C1=C\[n+]1ccccc1; > 250 µg/mL
O=C1NC(=S)S/C1=C\c1ccccc1C(F)(F)F; > 250 µg/mL
O=C1NC(=S)S/C1=C\c1ccc(Br)cc1; > 250 µg/mL
O=C1NC(=S)S/C1=C\c1ccccc1F; > 250 µg/mL

(Q) Which MIC reading was recorded for the compound COc1ccc(/C=C2\SC(=S)NC2=O)c(OC)c1OC ?
(A) > 250 µg/mL

(Q) Would you mind doing O=C1NC(=S)S/C1=C\c1ccc(C(F)(F)F)cc1 as well?
(A) 62.5 µg/mL

(Q) Okay, and COc1ccc(/C=C2\SC(=S)NC2=O)cc1 ?
(A) > 250 µg/mL

(Q) Same again, this time with O=C1NC(=S)S/C1=C\c1ccc(F)cc1
(A) 250 µg/mL

(Q) Now the same for O=C1NC(=S)S/C1=C\c1ccc2c(c1)OCO2
(A) > 250 µg/mL

(Q) Please do the same for O=C1NC(=S)S/C1=C\c1ccc(Cl)cc1 as well.
(A) 250 µg/mL

----------
Each entry below carries its reported MIC.
Tested on: Cryptococcus neoformans
Experiment: Antifungal activity against Cryptococcus neoformans ATCC 32264 after 48 hrs
Type: functional
Conditions: ATCC 32264, 48 h

COc1ccc(/C=C2\SC(=S)NC2=O)cc1; > 250 µg/mL
O=C1NC(=S)S/C1=C\c1ccc2c(c1)OCO2; > 250 µg/mL
O=C1NC(=S)S/C1=C\[n+]1ccccc1; > 250 µg/mL

Could you now consider this next compound?
(Q) // MIC lookup, key: COc1ccc(/C=C2\SC(=S)NC2=O)c(OC)c1OC
(A) > 250 µg/mL

----------
Tested on: Saccharomyces cerevisiae
Assay: Antifungal activity against Saccharomyces cerevisiae ATCC 9763 after 48 hrs
Type: functional
Details: ATCC 9763, 48 h
Here the recorded MIC is given for each entry.
Your answer should be a plain number; it is taken to be in µg/mL.

Some entries whose results are on file:
O=C1NC(=S)S/C1=C\c1ccccc1C(F)(F)F; 250
O=C1NC(=S)S/C1=C\c1ccccc1F; 250

(Q) What MIC appears in the records for this compound with Saccharomyces cerevisiae? O=C1NC(=S)S/C1=C\c1ccc(Cl)cc1
(A) 250
